Target: T1, huCD47-D1-his (recombinant human CD47 extracellular region D1 with C-terminal His tag) (human (homo sapiens), UniProt Q08722 19-141)
T1 construct: Expressed in HEK293 cells; analyte in the Biacore measurements and antigen of the phage panning; also called huCD47-his; hCD47; not shown: His tag added at the C-terminus
Test: SPR BIAcore, by the method of Example 3 (antibody captured, huCD47-D1-his analyte)
parameter_measured: koff (s⁻¹)
Expressed in s⁻¹, but write only the number.

Would you please look over these solved cases?
>>> measured_number("S4D12-IgG4 (mouse-human chimeric antibody, human IgG4-kappa) (antibody, V domains shown, also called 人-鼠嵌合单抗S4D12) VH: QVQLQQPGAELVKPGASVKMSCKASGYTFTNYWMHWVKQRPGQGLEWIGVIAPSDNYTNYNQKFQGKATLTVDTSSSTAYMQLSSLTSEDSAVYYCTKGGKYSMDYWGQGTSVTVSS VL: DVLMTQTPLSLPVSLGDQASISCRSSQSIVHSNGNTYLEWYLQKPGQSPKLLIYKVSNRFSGVPDRFSGSGSGTDFTLKISRVEAEDLGVYYCFQGSHVPFTFGSGTKLEIKR")
0.011
>>> measured_number("hS4D12-IgG4 (humanized S4D12) (antibody, V domains shown) VH: QVQLVQSGAEVKKPGASVKVSCKASGYTFTNYWMHWVRQRPGQGLEWIGVIAPSDNYTNYNQKFQGRVTMTVDTSTSTVYMELSSLRSEDTAVYYCTKGGKYSMDYWGQGTTVTVSS VL: DIVMTQTPLSLPVTPGEPASISCRSSQSIVHSNGNTYLEWYLQKPGQSPQLLIYKVSNRFSGVPDRFSGSGSGTDFTLKISRVEAEDVGVYYCFQGSHVPFTFGQGTKLEIK")
0.0118

# input In one line, give reported koff of the entry hS2C3-IgG4 (humanized S2C3) (antibody, V domains shown) VH: QVQLVQSGAEVKKPGASVKVSCKASGYTFTDYYMHWVRQAPGQRLEWMGWINPSSGNTKYAQKFQDRVTMTRDTSTSTVYMELSSLRSEDTAVYYCARREEDYFDYWGQGTLVTVSS VL: DIVMTQSPDSLAVSLGERATINCKSSQSLLYPSNKKNYLTWYQQKPGQPPKLLIYWASTRESGVPDRFSGSGSGTDFTLTISSLQAEDVAVYYCQEYYAYPLSFGQGTKLEIK .
# output 0.011

# input // Input: S2C3-IgG4 (mouse-human chimeric antibody, human IgG4-kappa) (antibody, V domains shown, also called 人-鼠嵌合单抗S2C3) VH: QIQLQQSGPELVKPGASVKISCKASGYTFTDYYMHWVKQRPGQGLEWIGWINPSSGNTKYAQKFQDKATLTVATSSSTAYMQLSSLTSEDTAVYFCARREEDYFDYWGQGTLVTVSS VL: DIVMSQSPSSLAVSVGEKVTMSCKSSQSLLYPSNKKNYLTWYQQKPGQSPKLLIYWASTRESGVPDRFTGSGSGTDFTLTISSVKAEDLAVYYCQEYYAYPLSFGAGTKLEIKR . Output its koff only.
# output 0.0205
